Values compiled from patent US20230331820A1.

- TARGET_OR_SYSTEM: gEgI WT: HSV2 gEgI heterodimer comprising gE and gI wildtype ectodomains (HSV2, UniProt P89475 21-416; P06764 21-256)
- EXPERIMENT_SUMMARY: SPR binning; gEgI captured by mAb 20
TEST_READOUT: RU (RU)
Dear colleague, please return just the value in RU, with no unit written.

// worked examples, RU included
BINDER	TEST_READOUT	ENDPOINT_VALUE
mAb clone 19 (antibody, V domains shown) VH: QVQLQQSGAELVRPGVSVKISCKGSGYTFTDYAMHWVKQSHAKSLEWIGVISTYYGDARYNQKFKGKATMTVDKSSSTAYMELARLTSEDSAIYYCARRGITVVADYAMDYWGQGTSVTVSS VL: QIVLTQSPAIMSASPGEKVTMSCSASSSVTYMHWYQQKSGTSPKRWIYDTSKLASGVPARFSGSGSGTSYSLTISSMEAEDAATYYCQQWSSNPPTFGGGTKLEIK	RU	9
mAb clone 15 (antibody, V domains shown) VH: QVQLKESGPGLVAPSQSLSITCTVSGFSLTSYGVSWVRQPPGKGLEWLGVIWGDGSTNYHSALISRLSISKDNSKSQVFLKLNSLQTDDTATYYCAKPDLYYDSPYAMDYWGQGTSVTVSS VL: DIQMTQSPASLSASVGETVTITCRASGNIHNYLAWYQQKQGKSPQLLVYNAKTLADGVPSRFSGSGSGTQYSLKINSLQPEDFGSYYCQHFWSTPWTFGGGTKLEIK	RU	13
mAb clone 17 (antibody, V domains shown) VH: QVQLKESGPGLVAPSQSLSITCTVSGFSLTSYGVHWVRQPPGKGLEWLGVIWAGGSSNYNSALMSRLSISKDNSKSQVFLKMNSLQTDDTAMYYCARDGYGYVYYAMDYWGQGTSVTVSS VL: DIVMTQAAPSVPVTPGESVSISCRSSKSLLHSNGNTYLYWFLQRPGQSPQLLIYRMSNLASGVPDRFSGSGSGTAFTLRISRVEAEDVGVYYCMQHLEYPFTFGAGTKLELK	RU	2.2
mAb clone 34 (antibody, V domains shown) VH: EVKLVESGGGLVQPGGSLKLSCATSGFTFSDYYMYWVRQTPEKRLEWVAYISNGGDSTYYPDTVKGRFTISRDNAKNTLYLQMSRLKSEDTAMYYCARSYYGNPFPYWGQGTLVTVSA VL: ENVLTQSPAIMSASPGEKVTMTCRASSSVSSSYLHWYQQKSGASPKLWIYSTSNLASGVPARFSGSGSGTSYSLTISSVEAEDAATYYCQQYSGYPLTFGAGTKLELK	RU	0.4

Q: Param item = mAb clone 40 (antibody, V domains shown) VH: QIQLVQSGPELKKPGETVKISCKASGYTFTNYGMNWVKQAPGKGLKWMGWINTYTGEPTYADDFKGRFAFSLETSASTAYLQINNLKNEDTATYFCARSLYGYDEGYFDVWGAGTTVTVSS VL: DIQMTQSPASLSASVGETVTITCRASGNIHNYLAWYQQKQGKSPQLLVYNAKTLADGVPSRFSGSGSGTQYSLKINSLQPEDFGSYYCQHFWSTPYTFGGGTKLEIK ; retrieve measured RU.
Ans: 10
